All figures here come from patent US10131666B2.

Quick list: Emax per entry.
- Target system: μ-opioid receptor (Homo sapiens)
- Construct: host or cells: HEK-293; b235 lists HEK-293, CHO or U-2 OS)
- Experiment notes: μ-opioid receptor [35S]GTPγS functional assay
- Type: biochemical
- Test context: maximal effect relative to the effect elicited by DAMGO; HEK-293 cells
Experimental readout: Emax (%)

1) CCn1c2c(cc(C(=O)N3Cc4ccccc4C3)c1=O)C[C@@]1(O)[C@H]3Cc4ccc(O)cc4[C@@]1(CCN3C)C2 = 30.8
2) CN1CC[C@]23Cc4[nH]c(=O)c(C(=O)N[C@H]5c6ccccc6C[C@H]5O)cc4C[C@H]2[C@H]1Cc1ccc(O)cc13 = 34
3) CN1CC[C@]23Cc4[nH]c(=O)c(C(=O)N5CCCC5)cc4C[C@H]2[C@H]1Cc1ccc(O)cc13 = 35.3
4) COc1ccc2c(c1)[C@]13CCN(C)[C@H](C2)[C@@H]1Cc1cc(C(=O)O)c(=O)[nH]c1C3 = 40.7
5) CN1CC[C@]23Cc4[nH]c(=O)c(C(=O)N[C@@H]5c6ccccc6C[C@@H]5O)cc4C[C@H]2[C@H]1Cc1ccc(O)cc13 = 34
6) COC(=O)c1cc2c([nH]c1=O)C[C@]13CCN[C@H](Cc4ccc(OC)cc41)[C@]3(O)C2 = 20
7) CN1CC[C@]23Cc4[nH]c(=O)c(C(=O)NCc5ccccc5)cc4C[C@H]2[C@H]1Cc1ccc(O)cc13 = 32.3
8) CN1CC[C@]23Cc4[nH]c(=O)c(C(=O)N5CCS(=O)(=O)CC5)cc4C[C@H]2[C@H]1Cc1ccc(O)cc13 = 33.2

---

Quick list: EC50 per entry.
- Target system: μ-opioid receptor (Homo sapiens)
- Construct: b235 lists HEK-293, CHO or U-2 OS)
- Experiment notes: μ-opioid receptor [35S]GTPγS functional assay
Experimental readout: EC50 (nM)

1) CN1CC[C@]23Cc4[nH]c(=O)c(C(=O)N5CCS(=O)(=O)CC5)cc4C[C@H]2[C@H]1Cc1ccc(O)cc13 [Compound 18] = 462
2) CCn1c2c(cc(C(=O)N3Cc4ccccc4C3)c1=O)C[C@@]1(O)[C@H]3Cc4ccc(O)cc4[C@@]1(CCN3C)C2 [Compound 19] = 288
3) CN(C(=O)c1cc2c([nH]c1=O)C[C@]13CCN(C)[C@H](Cc4ccc(O)cc41)[C@@H]3C2)C1CCCCC1 [Compound 15] = 289
4) CN1CC[C@]23Cc4[nH]c(=O)c(C(=O)N[C@@H]5c6ccccc6C[C@@H]5O)cc4C[C@H]2[C@H]1Cc1ccc(O)cc13 [Compound 13] = 484
5) COc1ccc2c(c1)[C@]13CCN(C)[C@H](C2)[C@@H]1Cc1cc(C(=O)O)c(=O)[nH]c1C3 [Compound 8] = 13300
6) CN1CC[C@]23Cc4[nH]c(=O)c(C(=O)N[C@H]5c6ccccc6C[C@H]5O)cc4C[C@H]2[C@H]1Cc1ccc(O)cc13 [Compound 14] = 432

---

Quick list: pKi per entry.
- Target system: κ-opioid receptor (Homo sapiens, UniProt P41145)
- Sequence (P41145 whole entry): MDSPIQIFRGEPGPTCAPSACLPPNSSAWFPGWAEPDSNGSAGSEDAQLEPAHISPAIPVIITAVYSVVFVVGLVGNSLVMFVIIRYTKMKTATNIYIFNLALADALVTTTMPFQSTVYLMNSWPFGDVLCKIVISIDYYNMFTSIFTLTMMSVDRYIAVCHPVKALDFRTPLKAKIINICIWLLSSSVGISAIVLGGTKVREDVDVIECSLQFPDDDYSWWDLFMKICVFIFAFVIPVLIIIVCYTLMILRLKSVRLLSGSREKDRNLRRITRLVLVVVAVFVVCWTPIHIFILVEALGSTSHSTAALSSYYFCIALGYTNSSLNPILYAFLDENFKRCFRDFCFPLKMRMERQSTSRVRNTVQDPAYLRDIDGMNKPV
pKi: −log10 of the molar value.
Experimental readout: pKi

1. CN1CC[C@]23Cc4[nH]c(=O)c(C(=O)N5[C@@H]6CC[C@H]5C[C@@H](O)C6)cc4C[C@H]2[C@H]1Cc1ccc(O)cc13 = 7.75
2. CN1CC[C@]23Cc4[nH]c(=O)c(C(=O)N5Cc6ccccc6C5)cc4C[C@H]2[C@H]1Cc1ccc(O)cc13 = 8.85
3. CN1CC[C@]23Cc4[nH]c(=O)c(C(=O)N5CCCC5)cc4C[C@H]2[C@H]1Cc1ccc(O)cc13 = 7.84

---

- Target system: κ-opioid receptor (Homo sapiens)
- Experiment notes: κ-opioid receptor [35S]GTPγS functional assay
pEC50: −log10 of the molar value.
Experimental readout: pEC50

1. CN1CC[C@]23Cc4[nH]c(=O)c(C(=O)N5[C@@H]6CC[C@H]5C[C@@H](O)C6)cc4C[C@H]2[C@H]1Cc1ccc(O)cc13 = 6.82
2. CN1CC[C@]23Cc4[nH]c(=O)c(C(=O)N5CCCC5)cc4C[C@H]2[C@H]1Cc1ccc(O)cc13 = 7.62

---

- Target system: μ-opioid receptor (Homo sapiens, UniProt P35372)
- Construct: host or cells: HEK-293; b235 lists HEK-293, CHO or U-2 OS)
- Sequence (P35372 whole entry, species assumed): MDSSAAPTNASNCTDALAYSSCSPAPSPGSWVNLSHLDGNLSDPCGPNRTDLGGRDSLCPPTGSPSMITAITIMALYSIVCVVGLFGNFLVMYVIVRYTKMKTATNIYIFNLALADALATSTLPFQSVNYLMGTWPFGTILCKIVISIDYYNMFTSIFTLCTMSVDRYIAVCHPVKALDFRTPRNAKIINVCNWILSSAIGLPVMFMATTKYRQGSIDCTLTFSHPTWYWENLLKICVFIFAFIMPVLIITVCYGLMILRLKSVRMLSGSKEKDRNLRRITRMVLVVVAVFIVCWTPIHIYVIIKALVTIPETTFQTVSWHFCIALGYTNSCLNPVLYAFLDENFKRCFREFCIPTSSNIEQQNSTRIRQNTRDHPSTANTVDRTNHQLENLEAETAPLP
- Experiment notes: μ-opioid receptor [35S]GTPγS functional assay
- Format: biochemical
- Test context: maximal effect relative to the effect elicited by DAMGO; HEK-293 cells
Quick list: Emax per entry.
Experimental readout: Emax (%)

1) CN1CC[C@]23Cc4[nH]c(=O)c(C(=O)N5[C@@H]6CC[C@H]5C[C@@H](O)C6)cc4C[C@H]2[C@H]1Cc1ccc(O)cc13 = 27.5
2) CN(C(=O)c1cc2c([nH]c1=O)C[C@]13CCN(C)[C@H](Cc4ccc(O)cc41)[C@@H]3C2)C1CCCCC1 = 29.7
3) CN1CC[C@]23Cc4[nH]c(=O)c(C(=O)N5Cc6ccccc6C5)cc4C[C@H]2[C@H]1Cc1ccc(O)cc13 = 47
4) NC(=O)c1cc2c([nH]c1=O)C[C@]13CCN[C@H](Cc4ccc(O)cc41)[C@]3(O)C2 = 23
5) COc1ccc2c(c1)[C@]13CCN(C(=O)OC(C)(C)C)[C@H](C2)[C@]1(O)Cc1cc(C(=O)O)c(=O)[nH]c1C3 = 3
6) COC(=O)c1cc2c([nH]c1=O)C[C@]13CCN(C(=O)OC(C)(C)C)[C@H](Cc4ccc(OC)cc41)[C@]3(O)C2 = 0
